Value source: patent US20080312246A1

Target: human mGluR5d (Homo sapiens)
Sequence (P41594 21-942 isoform P41594-3 limits assumed): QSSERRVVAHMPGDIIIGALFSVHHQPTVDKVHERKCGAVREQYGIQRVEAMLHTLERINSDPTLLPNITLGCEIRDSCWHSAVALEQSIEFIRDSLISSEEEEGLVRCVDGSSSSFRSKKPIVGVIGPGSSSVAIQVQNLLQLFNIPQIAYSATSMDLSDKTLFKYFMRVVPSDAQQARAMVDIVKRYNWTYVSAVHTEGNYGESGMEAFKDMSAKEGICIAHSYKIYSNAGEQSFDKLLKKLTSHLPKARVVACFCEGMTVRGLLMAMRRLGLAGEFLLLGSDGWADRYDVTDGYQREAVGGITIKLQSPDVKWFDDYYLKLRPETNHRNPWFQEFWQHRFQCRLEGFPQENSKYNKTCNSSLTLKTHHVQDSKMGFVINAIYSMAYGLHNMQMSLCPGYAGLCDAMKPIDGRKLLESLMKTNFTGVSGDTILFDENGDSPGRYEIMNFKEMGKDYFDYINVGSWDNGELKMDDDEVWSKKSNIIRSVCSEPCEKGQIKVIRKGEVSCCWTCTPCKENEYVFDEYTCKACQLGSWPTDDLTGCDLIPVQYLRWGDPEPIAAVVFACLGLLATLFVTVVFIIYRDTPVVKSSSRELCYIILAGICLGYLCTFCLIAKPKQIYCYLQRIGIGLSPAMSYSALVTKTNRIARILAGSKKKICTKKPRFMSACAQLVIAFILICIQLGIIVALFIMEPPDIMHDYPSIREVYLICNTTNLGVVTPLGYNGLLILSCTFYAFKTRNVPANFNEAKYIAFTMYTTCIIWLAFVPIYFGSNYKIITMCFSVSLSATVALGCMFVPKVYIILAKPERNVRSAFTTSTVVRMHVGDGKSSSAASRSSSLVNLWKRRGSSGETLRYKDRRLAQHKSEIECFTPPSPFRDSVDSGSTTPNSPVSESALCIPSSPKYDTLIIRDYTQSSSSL
Assay: Functional assessment of mGluR5 antagonism in cell lines expressing mGluR5d (FLIPR calcium mobilization / IP3 turnover; assay behind the values not specified)
Settings: cells expressing human mGluR5d; FLIPR or IP3 assay not specified
parameter: pIC50
By convention, pIC50 is the negative base-10 log of a molar concentration.

>>> observed_result("CC(c1cn(-c2cccc(Cl)c2)nn1)N1CCN(c2ccc(C#N)cn2)CC1 (centres unmarked) [Example 15.17]")
6.80

### Prompt GET /values?readout=pIC50&item= CC(c1cn(-c2cccc(Cl)c2)nn1)N1CCN(c2ncccc2C#N)CC1 (centres unmarked) [Example 15.16]
### Response 5.97
